Measured TGI, listed per entry.
tested on: SNB-75 CNS; test: NCI tumour cell line growth inhibition, 48 h

Past entries and their recorded results:
IN: Can you look up the measured TGI of Cc1ccc(NC(=O)CC(=O)N2N=C(c3ccccc3)C(N=Nc3ccc(S(=O)(=O)CCOS(=O)(=O)O)cc3)C2=O)cc1 (stereo not drawn) for me?
OUT: > 100 µM

IN: Given the compound CC(=O)C(C(=O)C(C)(C)C)C(=O)C(C)(C)C , what is its reported TGI?
OUT: > 100 µM

// moving on: another record for TGI
IN: Fill in the blank: the reported TGI of CN(C)/C=N/S(=O)(=O)c1nn2c(C=O)c(-c3cc4ccccc4oc3=O)nc2s1 is ____.
OUT: > 82.1 µM

----------
Each entry below carries its recorded TGI.
system: OVCAR-4 ovarian; experiment: NCI tumour cell line growth inhibition, 48 h

These solved cases illustrate the format of a correct answer.
IN: Entry CCOC(=O)CCC(NC(=O)c1ccc(NCc2ccc3nc(-c4ccccc4)c(Cl)nc3c2)c2ccccc12)C(=O)OCC (stereo not drawn) : reported TGI = ?
OUT: > 100 µM

IN: Give the measured TGI of Cc1nn(C)c(=O)c2nn(-c3ccccc3)c(C)c12 .
OUT: > 100 µM

Moving on to another molecule below.
IN: Fill in the blank: the reported TGI of CCCCC#Cc1cccc(=O)o1 is ____.
OUT: > 100 µM

----------
test system: HOP-62 NSCLC; experiment: NCI tumour cell line growth inhibition, 48 h
Overview of reported TGI across a group of compounds:

For orientation, consider the following solved cases.
IN: Tell me the measured TGI of Cc1ccnc2sc3ccccc3c(=O)c12 , please.
OUT: > 100 µM

IN: If you can, please state the reported TGI value of N#CC(=S)Nc1ccc(F)cc1 .
OUT: > 100 µM

Next:
IN: Find the recorded TGI belonging to C=C1C(=O)O[C@H]2[C@H]1CC(=O)/C(C)=C\CC[C@@]1(C)O[C@@H]21 and report it.
OUT: 8.45 µg/mL

IN: What value of TGI has been reported for the following compound? O=C(NC(CO)CO)c1ccc2cc(C(=O)N3CC(CCl)c4ccc([N+](=O)[O-])cc43)[nH]c2c1 (stereo unspecified)
OUT: > 100 µM

IN: Report TGI for CC(C)c1ccc(O)c(=O)cc1 please.
OUT: > 100 µM

IN: # TGI lookup, item Cc1[nH]nc(C(=O)Nc2n[nH]c3ccccc23)c1[N+](=O)[O-]
OUT: > 100 µM

----------
tested on: MOLT-4 leukemia; assay: NCI tumour cell line growth inhibition, 48 h; in the data active means GI50 below about 0.43 µM; inactive means the rest
Select the matching outcome among active, inactive

Examples with answers:
IN: I'd appreciate the recorded outcome for COc1ccc(-c2c(C#N)c(N)nc3c2CCCc2ccc(F)cc2-3)cc1OC from this test.
OUT: active

IN: Look up the recorded call for COc1cccc(C2C(C#N)=C(N)Oc3cc(OC)ccc32)c1 (stereo not drawn) in this test.
OUT: active

Consider the additional compound presented here.
IN: I'd appreciate the recorded outcome for COc1ccc(Cn2cc(Cn3c(=O)c(-c4nc5ccccc5[nH]4)cc4ccccc43)nn2)c(OC)c1OC from this test.
OUT: inactive

----------
Consider the following compounds and their measured TGI readings.
tested on: OVCAR-3 ovarian; experiment: NCI tumour cell line growth inhibition, 48 h

IN: # TGI lookup, item COC(=O)C(=O)C(C#N)c1ccc(Cl)c(Cl)c1 (stereo unspecified)
OUT: > 100 µM

IN: Need TGI, item CCCN(CCC)c1c([N+](=O)[O-])cc(C(=O)N(C)C)cc1[N+](=O)[O-]
OUT: > 100 µM

IN: Which TGI reading was recorded for the compound COc1cnnc2c(C)c(-c3ccccc3)nn12 ?
OUT: > 100 µM

Continuing:
IN: # input compound: Cc1[nH]c(=O)[nH]c(=O)c1C(=O)N(CCO)Cc1ccccc1 ; wanted: its TGI
OUT: > 100 µM

IN: Quick check: TGI of O=C(O/N=C1/CCCC/C1=C\c1ccccc1)c1ccc(Cl)cc1 ?
OUT: > 100 µM

IN: Can you share its TGI? I mean this compound: COC(=O)c1ccccc1N=Cc1ccc(N(CCC#N)S(=O)(=O)c2ccccc2)cc1
OUT: > 100 µM

----------
Entries and their TGI
tested on: RXF-631 renal; experiment: NCI tumour cell line growth inhibition, 48 h

The examples below pair each entry with its known result.
IN: Fill in: TGI of COC(=O)c1ccccc1N=Cc1ccc(N(CCC#N)S(=O)(=O)c2ccccc2)cc1 is ___
OUT: > 100 µM

IN: Look up TGI for this molecule: O=C1c2ccccc2C2(O)Oc3cccc(O)c3C12O (stereo not drawn)
OUT: > 100 µM

# evaluate next
IN: Dear colleague, I am looking for the recorded TGI of the following molecule: N#Cc1nc(Nc2ccc([N+](=O)[O-])cc2)sc1N
OUT: > 75 µM

----------
TGI overview
test system: HOP-18 NSCLC; test: NCI tumour cell line growth inhibition, 48 h

Worked set:
IN: TGI lookup needed for CCOC(=O)C1(C(=O)OCC)CC=C(C)CC12C(=O)Nc1ccccc12 (stereo not drawn) , thanks.
OUT: > 100 µM

IN: Quick one: TGI of CN(Cc1ccccc1)C1(N(C)Cc2ccccc2)CC1 ?
OUT: > 100 µM

---
IN: Entry NC(=S)N/N=C(\C(=O)Nc1ccc(Cl)c(Cl)c1)C1=NN(c2ccccc2)C(c2cccc([N+](=O)[O-])c2)CC1=O (stereo not drawn) has what TGI?
OUT: > 100 µM

----------
tested on: K-562 leukemia; assay: NCI tumour cell line growth inhibition, 48 h
Endpoint label: TGI

IN: Any idea what its TGI is? The compound is CCOC(=O)C1=CN(C(=O)c2ccccc2)CCC1Cc1ccccc1 (stereo unspecified)
OUT: 77.3 µM

IN: Endpoint output: TGI of C=CCc1cccc2cc(C(=O)Nc3nc(C45CC6CC(CC(C6)C4)C5)cs3)c(=O)oc12 . Value?
OUT: > 100 µM

IN: So what's the measured TGI for this one? COc1ccc(Nc2c[nH]c(=O)[nH]c2=O)cc1
OUT: > 100 µM

IN: Quick one: TGI for O=C(Nc1ccccc1F)c1ccc(NC2=C(Cl)C(=O)N(Cc3ccccc3)C2=O)cc1 ?
OUT: 12.1 µM

IN: What TGI value was documented for this compound, O=c1cc2cc(O)[nH]c(=O)c2c(O)[nH]1 ?
OUT: > 100 µM

Query compound follows.
IN: Item under review: CN(/N=C/c1ccc(Cl)c(Cl)c1)C1=NCCN1 . Reported TGI?
OUT: > 100 µM

----------
system: RPMI-8226 leukemia; test: NCI tumour cell line growth inhibition, 48 h
Endpoint label: TGI

Reference set, count: 6
IN: Look at this molecule and give its reported TGI. COc1cccc2c(Nc3ccc(C(=O)NCCN(C)C)cc3)cc(-c3ccccc3)nc12
OUT: 24.4 µM

IN: # lookup: TGI of C=C(COC(=O)C(C)C)[C@H]1Oc2ccc(C(C)=O)cc2[C@@H]1OC(=O)C(C)C
OUT: > 100 µM

IN: For the molecule shown here, Cc1ccc(N(C(=O)CC(=O)N2N=C(c3ccccc3)C(N=Nc3ccc([N+](=O)[O-])cc3)C2=O)C(=O)c2ccc(Cl)cc2)cc1 (stereo not drawn) , give the reported TGI.
OUT: > 59.1 µM

IN: Suppose we examine the molecule CCN1CCCCC(=N\O)/C(=N/O)CCCC1 ; what TGI value has been reported?
OUT: > 100 µM

IN: I have this molecule here, O=C(NNCc1ccccc1O)c1ccccc1O , and I need its recorded TGI.
OUT: > 100 µM

IN: State the recorded TGI for this entry: C1C[OH+]CC[OH+]CC[OH+]CC[OH+]CC[OH+]CC[OH+]1.[Cl-].[Ta+5]
OUT: > 100 µM

Alright, here's another molecule for you.
IN: TGI for CC(=O)OC1=C2C(CC3C4CC=C5CC(OC(C)=O)CCC5(C)C4CCC23C)C2C(=O)N(Cc3ccccc3)C(=O)C2C1 (stereo not drawn) ?
OUT: 9.82 µM

----------
tested on: MDA-MB-231 breast; assay: NCI tumour cell line growth inhibition, 48 h
Below, each of the compounds is paired with its reported TGI value.
Reply with just the number (in µM).

IN: What measured TGI goes with CCCCc1nc2cc(/C=C/C(=O)NO)ccc2n1CCN(CC)CC ?
OUT: 5.43

New cases:
IN: So what does the record say about TGI for COC(=O)[C@]12CC[C@@H](C)[C@H](C)[C@@H]1C1=CC[C@@H]3[C@@]4(C)C=C(O)C(=O)C(C)=C4CC[C@@]3(C)[C@]1(C)CC2 ?
OUT: 30.2

----------
system: IGROV1 ovarian; assay: NCI tumour cell line growth inhibition, 48 h
As shown below, each of these molecules has a reported TGI value.

Known TGI results, listed for orientation:
IN: Which TGI value is on record for Clc1ccc(-c2nn3c(C45CC6CC(CC(C6)C4)C5)nnc3s2)cc1 ?
OUT: > 100 µM

IN: Quick one: TGI for COC(=O)c1cc2c(cc1Cl)SC(N(N(C)C)S(=O)(=O)c1ccc(Cl)cc1)=NS2(=O)=O ?
OUT: 73.6 µM

***
IN: Field request: TGI | item: COc1ccc(S(=O)(=O)N/N=C(\C)CN2C(=O)c3ccccc3C2=O)cc1
OUT: > 100 µM

Reference for the values: PubChem BioAssay (NCI)
